Target: CYP2D6 (Homo sapiens, UniProt P10635)
Sequence (P10635 whole entry): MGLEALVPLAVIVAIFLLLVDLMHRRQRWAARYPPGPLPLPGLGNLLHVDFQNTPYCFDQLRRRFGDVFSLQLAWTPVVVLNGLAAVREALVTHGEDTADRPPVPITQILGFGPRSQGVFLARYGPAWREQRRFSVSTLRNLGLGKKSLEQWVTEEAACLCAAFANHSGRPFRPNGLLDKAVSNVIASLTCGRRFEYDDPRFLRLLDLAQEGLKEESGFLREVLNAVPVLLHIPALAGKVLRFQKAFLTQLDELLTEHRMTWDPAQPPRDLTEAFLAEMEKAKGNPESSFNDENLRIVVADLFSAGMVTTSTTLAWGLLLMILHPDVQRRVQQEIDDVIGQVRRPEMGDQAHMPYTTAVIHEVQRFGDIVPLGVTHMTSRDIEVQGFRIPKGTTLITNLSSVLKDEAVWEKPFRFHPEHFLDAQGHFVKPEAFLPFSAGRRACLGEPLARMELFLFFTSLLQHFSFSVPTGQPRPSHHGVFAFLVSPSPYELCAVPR
Test: Inhibition of CYP2D6 in human liver microsome at 10 uM pre-incubated with compound for 10 mins in presence of NADPH-regenerating system by LC-MS/MS analysis relative to control
Format: ADME
Settings: liver microsomes
Parameter: inhibition at 10 µM (%)
Express your answer in %, writing the number without its unit.

Missing value: inhibition at 10 µM, CYP2D6 (Homo sapiens, UniProt P10635), entry CC(C)Oc1cc(F)ccc1-c1ccnc(NC(=O)Nc2cccc(C(=O)N3CCN(C)CC3)c2)c1 . Fill in?
42.6

====

Assay: Metabolic stability in human liver microsome assessed as intrinsic clearance at 100 uM pre-incubated with compound for 60 mins followed by NADPH addition and measured up to 60 mins by LC-MS/MS analysis
Type: ADME
Details: liver microsomes, read-out: CLH
Parameter: microsomal CLint at 100 µM (µL/min/mg)
Quick note: give the figure in µL/min/mg, leave out the unit.

# microsomal CLint at 100 µM lookup, item CC(C)Oc1cc(F)ccc1-c1ccnc(NC(=O)Nc2cccc(C(=O)N3CCN(C)CC3)c2)c1
352

====

Molecular target: CDK6/cyclin D3 (Homo sapiens)
Sequence (P30281 whole entry): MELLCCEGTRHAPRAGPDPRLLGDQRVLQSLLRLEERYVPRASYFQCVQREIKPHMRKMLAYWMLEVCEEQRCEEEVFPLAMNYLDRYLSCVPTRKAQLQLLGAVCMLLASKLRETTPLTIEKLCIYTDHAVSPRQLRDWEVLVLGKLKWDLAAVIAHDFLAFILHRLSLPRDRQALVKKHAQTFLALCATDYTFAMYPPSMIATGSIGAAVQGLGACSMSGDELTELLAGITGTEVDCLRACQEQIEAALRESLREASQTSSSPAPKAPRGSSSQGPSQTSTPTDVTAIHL
Sequence (Q00534 whole entry): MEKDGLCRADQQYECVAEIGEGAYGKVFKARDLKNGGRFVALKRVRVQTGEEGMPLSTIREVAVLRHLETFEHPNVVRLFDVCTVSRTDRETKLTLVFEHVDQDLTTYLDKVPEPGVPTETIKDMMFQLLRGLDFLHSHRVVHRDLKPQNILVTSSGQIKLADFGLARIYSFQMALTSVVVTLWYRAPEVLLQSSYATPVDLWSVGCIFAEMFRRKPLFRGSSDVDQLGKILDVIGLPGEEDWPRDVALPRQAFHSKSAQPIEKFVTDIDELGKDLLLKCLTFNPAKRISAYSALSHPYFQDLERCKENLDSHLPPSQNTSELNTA
Assay: Inhibition of CDK6/cycD3 (unknown origin) by ADP-Glo assay
Parameter: pIC50
// pIC50 is dimensionless: -log10 of concentration (M)

Look at this compound and give its reported pIC50. CC(C)Oc1cc(F)ccc1-c1ccnc(NC(=O)Nc2cccc(C(=O)N3CCN(C)CC3)c2)c1
5.10

====

Target: CDK9/cyclin T1 (Homo sapiens, UniProt P50750)
Sequence (O60563 whole entry): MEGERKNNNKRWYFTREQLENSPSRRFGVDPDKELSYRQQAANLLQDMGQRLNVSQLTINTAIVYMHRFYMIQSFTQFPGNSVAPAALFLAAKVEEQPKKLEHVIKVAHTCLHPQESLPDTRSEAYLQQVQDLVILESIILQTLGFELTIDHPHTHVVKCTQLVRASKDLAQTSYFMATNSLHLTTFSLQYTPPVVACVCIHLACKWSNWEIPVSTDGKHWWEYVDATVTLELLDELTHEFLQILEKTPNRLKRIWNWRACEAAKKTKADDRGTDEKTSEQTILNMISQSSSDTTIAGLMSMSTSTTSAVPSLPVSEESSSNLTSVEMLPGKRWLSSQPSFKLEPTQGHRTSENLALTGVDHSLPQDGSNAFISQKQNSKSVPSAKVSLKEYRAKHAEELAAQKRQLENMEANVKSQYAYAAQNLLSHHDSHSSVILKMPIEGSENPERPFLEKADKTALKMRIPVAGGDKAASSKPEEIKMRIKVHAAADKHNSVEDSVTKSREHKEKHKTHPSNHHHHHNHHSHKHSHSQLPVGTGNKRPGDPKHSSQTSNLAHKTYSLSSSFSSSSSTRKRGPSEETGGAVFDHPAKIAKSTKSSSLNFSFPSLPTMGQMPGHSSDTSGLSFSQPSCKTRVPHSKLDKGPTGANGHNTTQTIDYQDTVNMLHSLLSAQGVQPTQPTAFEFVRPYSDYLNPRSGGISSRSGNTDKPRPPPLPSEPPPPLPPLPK
Sequence (P50750 whole entry): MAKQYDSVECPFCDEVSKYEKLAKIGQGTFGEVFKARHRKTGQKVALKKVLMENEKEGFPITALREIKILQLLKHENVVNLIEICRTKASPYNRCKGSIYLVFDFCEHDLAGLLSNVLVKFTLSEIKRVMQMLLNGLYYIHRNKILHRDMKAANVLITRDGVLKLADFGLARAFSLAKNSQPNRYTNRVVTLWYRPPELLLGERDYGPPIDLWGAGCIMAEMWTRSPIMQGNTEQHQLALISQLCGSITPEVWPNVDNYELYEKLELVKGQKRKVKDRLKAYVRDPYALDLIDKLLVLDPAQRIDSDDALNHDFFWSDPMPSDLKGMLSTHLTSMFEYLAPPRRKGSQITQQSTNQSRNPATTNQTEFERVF
Test: Binding affinity to CDK9/cyclin T1 (unknown origin) assessed as dissociation constant by SPR analysis
Parameter: pKd
Note: pKd values are expressed as the negative base-10 logarithm of concentration in M.

Endpoint output: pKd of CC(C)Oc1cc(F)ccc1-c1ccnc(NC(=O)Nc2cccc(C(=O)N3CCN(C)CC3)c2)c1 . Value?
5.05
